Assay: Average particle size and polydispersity index of lipid nanoparticles (dynamic light scattering)
Assay type: physicochemical
Settings: Table 3; Fluc mRNA-loaded lipid nanoparticles; TxT/DSPC/chol/PEG-DMG=50/3/47/1.5 (mol%)
observation type: number average particle size (nm)

Below, each entry is followed by its recorded number average particle size result.
CCCCCCCN(CCCCCCC)C(=O)CCCC(=O)OCC(COC(=O)CCCC(=O)N(CCCCCCC)CCCCCCC)(COC(=O)CCCC(=O)N(CCCCCCC)CCCCCCC)NC(=O)CCN1CCCCC1 [TxT-5-5A14] : 78.9
CCCCCCN(CCCCCC)C(=O)CCCC(=O)OCC(COC(=O)CCCC(=O)N(CCCCCC)CCCCCC)(COC(=O)CCCC(=O)N(CCCCCC)CCCCCC)NC(=O)CCN1CCCCC1 [TxT-5-5A12] : 124.5
CCCCCCCCC(CCCCCC)CNC(=O)CCCC(=O)OCC(COC(=O)CCCC(=O)NCC(CCCCCC)CCCCCCCC)(COC(=O)CCCC(=O)NCC(CCCCCC)CCCCCCCC)NC(=O)CCN1CCCCC1 (stereo not drawn) [TxT-5-5A16β] : 69.3

[A] CCCCCCCCCCN(CCCCCCCCCC)C(=O)CCC(=O)OCC(COC(=O)CCC(=O)N(CCCCCCCCCC)CCCCCCCCCC)(COC(=O)CCC(=O)N(CCCCCCCCCC)CCCCCCCCCC)NC(=O)CCN1CCCCC1 [TxT-5-4A20]
[B] CCCCCCC(CCCCCC)COC(=O)CCCC(=O)OCC(COC(=O)CCCC(=O)OCC(CCCCCC)CCCCCC)(COC(=O)CCCC(=O)OCC(CCCCCC)CCCCCC)NC(=O)CCN1CCCCC1 [TxT-5-5E14]
Ask | Please state the entry with greater number average particle size among A and B . Which one? Tell me its label.
Reply | A
(A: 98.6 nm, B: 60.2 nm)

----------
Experiment: Average particle size and polydispersity index of lipid nanoparticles (dynamic light scattering)
Assay type: physicochemical
Details: Table 3; Fluc mRNA-loaded lipid nanoparticles; TxT/DSPC/chol/PEG-DMG=50/3/47/1.5 (mol%)
observation type: ζ-average particle size (nm)

CCCCCCN(CCCCCC)C(=O)CCCC(=O)OCC(COC(=O)CCCC(=O)N(CCCCCC)CCCCCC)(COC(=O)CCCC(=O)N(CCCCCC)CCCCCC)NC(=O)CCN1CCCCC1 : 155.2
CCCCCCCN(CCCCCCC)C(=O)CCCC(=O)OCC(COC(=O)CCCC(=O)N(CCCCCCC)CCCCCCC)(COC(=O)CCCC(=O)N(CCCCCCC)CCCCCCC)NC(=O)CCN1CCCCC1 : 101.0
CCCCCCCCCCN(CCCCCCCCCC)C(=O)CCC(=O)OCC(COC(=O)CCC(=O)N(CCCCCCCCCC)CCCCCCCCCC)(COC(=O)CCC(=O)N(CCCCCCCCCC)CCCCCCCCCC)NC(=O)CCN1CCCCC1 : 136.8

----------
Test: Encapsulation rate of lipid nanoparticles (Ribogreen)
Format: physicochemical
Conditions: Table 1; Fluc mRNA-loaded lipid nanoparticles; TxT/DSPC/chol/PEG-DMG=50/15/35/1.5 (mol%)
observation type: mRNA encapsulation rate (%)

Below, each entry is followed by its recorded mRNA encapsulation rate result.
CCCCN(CCCC)C(=O)CCCC(=O)OCC(COC(=O)CCCC(=O)N(CCCC)CCCC)(COC(=O)CCCC(=O)N(CCCC)CCCC)NC(=O)CCN1CCCCC1 : 23.7
CCCCC(CC)CNC(=O)CCCC(=O)OCC(COC(=O)CCCC(=O)NCC(CC)CCCC)(COC(=O)CCCC(=O)NCC(CC)CCCC)NC(=O)CCN1CCCCC1 (stereo not shown) : 73.4
CCCCCCCN(CCCCCCC)C(=O)CCCC(=O)OCC(COC(=O)CCCC(=O)N(CCCCCCC)CCCCCCC)(COC(=O)CCCC(=O)N(CCCCCCC)CCCCCCC)NC(=O)CCN1CCCCC1 : 98.8
CCCCCCCCN(CCCCCCCC)C(=O)CCCC(=O)OCC(COC(=O)CCCC(=O)N(CCCCCCCC)CCCCCCCC)(COC(=O)CCCC(=O)N(CCCCCCCC)CCCCCCCC)NC(=O)CCN1CCCCC1 : 96.7
CCCCCCN(CCCCCC)C(=O)CCCC(=O)OCC(COC(=O)CCCC(=O)N(CCCCCC)CCCCCC)(COC(=O)CCCC(=O)N(CCCCCC)CCCCCC)NC(=O)CCN1CCCCC1 : 85.9

[I] CCCCCCC(CCCC)CNC(=O)CCCC(=O)OCC(COC(=O)CCCC(=O)NCC(CCCC)CCCCCC)(COC(=O)CCCC(=O)NCC(CCCC)CCCCCC)NC(=O)CCN1CCCCC1 (stereo not shown)
[II] CCCCCN(CCCCC)C(=O)CCCC(=O)OCC(COC(=O)CCCC(=O)N(CCCCC)CCCCC)(COC(=O)CCCC(=O)N(CCCCC)CCCCC)NC(=O)CCN1CCCCC1
Ask | Please state the entry with greater mRNA encapsulation rate among I and II . Which one? Tell me its label.
Reply | I
(I: 97.0%, II: 56.5%)

----------
Assay: Average particle size and polydispersity index of lipid nanoparticles (dynamic light scattering)
Type: physicochemical
Settings: Table 4; Fluc mRNA-loaded lipid nanoparticles; TxT-5-5A14/DSPC/chol/PEG-DMG=50/3/47/1.5; SM-102, ALC-0315 or MC3/DSPC/chol/PEG-DMG=50/10/40/1.5 (mol%)
observation type: number average particle size (nm)

[A] CCCCCCCN(CCCCCCC)C(=O)CCCC(=O)OCC(COC(=O)CCCC(=O)N(CCCCCCC)CCCCCCC)(COC(=O)CCCC(=O)N(CCCCCCC)CCCCCCC)NC(=O)CCN1CCCCC1 [TxT-5-5A14]
[B] CCCCCCCCCCCOC(=O)CCCCCN(CCO)CCCCCCCC(=O)OC(CCCCCCCC)CCCCCCCC [SM-102, reference compound]
Ask | Hi! Which is lower in terms of number average particle size, the first one A or the second one B ? Which one? Tell me its label.
Reply | B
(B: 42.0 nm, A: 82.4 nm)

----------
Assay: Zeta potential of lipid nanoparticles
Assay type: physicochemical
Details: Table 4; Fluc mRNA-loaded lipid nanoparticles; TxT-5-5A14/DSPC/chol/PEG-DMG=50/3/47/1.5; SM-102, ALC-0315 or MC3/DSPC/chol/PEG-DMG=50/10/40/1.5 (mol%)
observation type: ζ-potential (mV)

CCCCCCCCCCCOC(=O)CCCCCN(CCO)CCCCCCCC(=O)OC(CCCCCCCC)CCCCCCCC [SM-102, reference compound] : -11.0
CCCCCCCN(CCCCCCC)C(=O)CCCC(=O)OCC(COC(=O)CCCC(=O)N(CCCCCCC)CCCCCCC)(COC(=O)CCCC(=O)N(CCCCCCC)CCCCCCC)NC(=O)CCN1CCCCC1 [TxT-5-5A14] : -8.9

[a] CCCCC/C=C\C/C=C\CCCCCCCCC(CCCCCCCC/C=C\C/C=C\CCCCC)OC(=O)CCCN(C)C [MC3, DLin-MC3-DMA, reference compound]
[b] CCCCCCCCC(CCCCCC)C(=O)OCCCCCCN(CCCCO)CCCCCCOC(=O)C(CCCCCC)CCCCCCCC (stereo not shown) [ALC-0315, reference compound]
Ask | Please state the entry with greater ζ-potential among a and b . Which one? Tell me its label.
Reply | b
(b: -2.1 mV, a: -6.8 mV)

----------
Experiment: Encapsulation rate of lipid nanoparticles (Ribogreen)
Format: physicochemical
Conditions: Table 3; Fluc mRNA-loaded lipid nanoparticles; TxT/DSPC/chol/PEG-DMG=50/3/47/1.5 (mol%)
observation type: mRNA encapsulation rate (%)

CCCCCCCN(CCCCCCC)C(=O)CCCC(=O)OCC(COC(=O)CCCC(=O)N(CCCCCCC)CCCCCCC)(COC(=O)CCCC(=O)N(CCCCCCC)CCCCCCC)NC(=O)CCN1CCCCC1 [TxT-5-5A14] : 98.6
CCCCCCCCC(CCCCCC)CNC(=O)CCCC(=O)OCC(COC(=O)CCCC(=O)NCC(CCCCCC)CCCCCCCC)(COC(=O)CCCC(=O)NCC(CCCCCC)CCCCCCCC)NC(=O)CCN1CCCCC1 (stereo not drawn) [TxT-5-5A16β] : 99.2
CCCCCCCCN(CCCCCCCC)C(=O)CCCC(=O)OCC(COC(=O)CCCC(=O)N(CCCCCCCC)CCCCCCCC)(COC(=O)CCCC(=O)N(CCCCCCCC)CCCCCCCC)NC(=O)CCN1CCCCC1 [TxT-5-5A16] : 98.8

----------
Experiment: Average particle size and polydispersity index of lipid nanoparticles (dynamic light scattering)
Format: physicochemical
Settings: Table 4; Fluc mRNA-loaded lipid nanoparticles; TxT-5-5A14/DSPC/chol/PEG-DMG=50/3/47/1.5; SM-102, ALC-0315 or MC3/DSPC/chol/PEG-DMG=50/10/40/1.5 (mol%)
observation type: Pdl

CCCCCCCCCCCOC(=O)CCCCCN(CCO)CCCCCCCC(=O)OC(CCCCCCCC)CCCCCCCC [SM-102, reference compound] : 0.21

[I] CCCCC/C=C\C/C=C\CCCCCCCCC(CCCCCCCC/C=C\C/C=C\CCCCC)OC(=O)CCCN(C)C [MC3, DLin-MC3-DMA, reference compound]
[II] CCCCCCCCC(CCCCCC)C(=O)OCCCCCCN(CCCCO)CCCCCCOC(=O)C(CCCCCC)CCCCCCCC (stereo not shown) [ALC-0315, reference compound]
[III] CCCCCCCN(CCCCCCC)C(=O)CCCC(=O)OCC(COC(=O)CCCC(=O)N(CCCCCCC)CCCCCCC)(COC(=O)CCCC(=O)N(CCCCCCC)CCCCCCC)NC(=O)CCN1CCCCC1
Ask | Arrange by Pdl, high to low. # output: labels, in the requested order
Reply | I, II, III
